# credit: ChEMBL document CHEMBL3808334

# assay.remarks: Growth inhibition of human SF539 cells assessed as cell growth at 10^-4 M incubated for 48 hrs by sulforhodamine B assay
# Format: functional
# study.conditions: SF-539, 48 h, read-out: Activity
Attribute: growth at 100 µM
Form entry: value (%) — number only.

>>> recorded_result("c1ccc2[nH]c(-c3ccc(Nc4nc(N5CCCCC5)nc(N5CCOCC5)n4)cc3)nc2c1")
-76

Form field growth at 100 µM, entry Fc1ccc(-c2nc(Nc3ccc(-c4nc5ccccc5[nH]4)cc3)nc(N3CCOCC3)n2)cc1 : -84

Form field growth at 100 µM, entry Clc1ccc(-c2nc(Nc3ccc(-c4nc5ccccc5[nH]4)cc3)nc(N3CCOCC3)n2)cc1 : -38

Form field growth at 100 µM, entry c1ccc(-c2nc(Nc3ccc(-c4nc5ccccc5[nH]4)cc3)nc(N3CCOCC3)n2)cc1 : -90

====

Attribute: growth at 0.1 µM
# Test system: NCI-H522
# assay.remarks: Growth inhibition of human NCI-H522 cells assessed as cell growth at 10^-7 M incubated for 48 hrs by sulforhodamine B assay
# Format: functional
# study.conditions: NCI-H522, 48 h, read-out: Activity
Form entry: value (%) — number only.

>>> recorded_result("Fc1ccc(-c2nc(Nc3ccc(-c4nc5ccccc5[nH]4)cc3)nc(N3CCOCC3)n2)cc1")
97
>>> recorded_result("c1ccc(-c2nc(Nc3ccc(-c4nc5ccccc5[nH]4)cc3)nc(N3CCOCC3)n2)cc1")
101

growth at 0.1 µM of c1ccc2[nH]c(-c3ccc(Nc4nc(N5CCCCC5)nc(N5CCOCC5)n4)cc3)nc2c1 , assay on NCI-H522, is 97

growth at 0.1 µM of Clc1ccc(-c2nc(Nc3ccc(-c4nc5ccccc5[nH]4)cc3)nc(N3CCOCC3)n2)cc1 , assay on NCI-H522, is 95

====

# System: CCRF-CEM
# assay.remarks: Growth inhibition of human CCRF-CEM cells assessed as cell growth at 10 uM incubated for 48 hrs by sulforhodamine B assay
# Format: functional
# study.conditions: read-out: Activity
quantity.kind: growth at 10 µM (%)
Form entry: value (%) — number only.

The cases that follow already have their growth at 10 µM on record.
>>> recorded_result("c1ccc(-c2nc(Nc3ccc(-c4nc5ccccc5[nH]4)cc3)nc(N3CCOCC3)n2)cc1")
-15.7
>>> recorded_result("Clc1ccc(-c2nc(Nc3ccc(-c4nc5ccccc5[nH]4)cc3)nc(N3CCOCC3)n2)cc1")
-91.5
>>> recorded_result("c1ccc2[nH]c(-c3ccc(Nc4nc(N5CCCCC5)nc(N5CCOCC5)n4)cc3)nc2c1")
8.74

Could you now look at the following molecule, please?
growth at 10 µM of Fc1ccc(-c2nc(Nc3ccc(-c4nc5ccccc5[nH]4)cc3)nc(N3CCOCC3)n2)cc1 , assay on CCRF-CEM, is -1.84

====

Attribute: GI50
# assay.remarks: Growth inhibition of human COLO205 cells incubated for 48 hrs by sulforhodamine B assay
# Type: functional
# study.conditions: COLO 205, 48 h, read-out: GI50
Form entry: value (nM) — number only.

The cases that follow already have their GI50 on record.
>>> recorded_result("c1ccc(-c2nc(Nc3ccc(-c4nc5ccccc5[nH]4)cc3)nc(N3CCOCC3)n2)cc1")
1410
>>> recorded_result("Fc1ccc(-c2nc(Nc3ccc(-c4nc5ccccc5[nH]4)cc3)nc(N3CCOCC3)n2)cc1")
1920
>>> recorded_result("Clc1ccc(-c2nc(Nc3ccc(-c4nc5ccccc5[nH]4)cc3)nc(N3CCOCC3)n2)cc1")
305

Form field GI50, entry c1ccc2[nH]c(-c3ccc(Nc4nc(N5CCCCC5)nc(N5CCOCC5)n4)cc3)nc2c1 : 1860
